Measured values drawn from paper PMC9404711 for this set.

test system: P. aeruginosa (ATCC 27853); type: cell-based, Pseudomonas aeruginosa; conditions: P. aeruginosa ATCC 27853; MHB-II, inoculum 5 × 10^5 CFU/mL, 37 °C, 18–24 h, triplicate
Positions of bridges follow the written chain, without caps; N, C: chain ends. Non-standard residues stand in square brackets, D forms with d. Residues, ends and D or L forms follow the SMILES beside them. *: point of attachment. X1 = CC[C@H](C)CCCCC(=O)*; Octanoyl = CCCCCCCC(=O)*; Dab = NCC[C@H](N)C(=O)O; Hexanoyl = CCCCCC(=O)*
Measured MIC PA, listed per entry for reference.
endpoint: MIC PA (µg/mL)

>>> measured("CCCCCCCCCCCCCC(=O)N[C@H](CCCCN)C(=O)N[C@H](CCCCN)C(=O)N[C@H](CC(C)C)C(=O)N[C@H](Cc1ccccc1)C(=O)N[C@H](CCCCN)C(=O)N[C@H](CCCCN)C(=O)N[C@@H](C(=O)N[C@H](CC(C)C)C(=O)N1CCCC[C@H](C(N)=O)NC(=O)[C@@H](Cc2ccc(O)cc2)NC(=O)[C@@H](CCCNC(=N)N)NC(=O)C1)[C@H](C)CC")
16
>>> measured("CCCCCCCCCCCC(=O)N[C@H](CCCCN)C(=O)N[C@H](CCCCN)C(=O)N[C@H](CC(C)C)C(=O)N[C@H](Cc1ccccc1)C(=O)N[C@H](CCCCN)C(=O)N[C@H](CCCCN)C(=O)N1CCCC[C@H](C(N)=O)NC(=O)[C@@H](Cc2ccc(O)cc2)NC(=O)[C@@H](CCCNC(=N)N)NC(=O)[C@@H](CC(C)C)NC(=O)[C@@H]([C@H](C)CC)NC(=O)C1")
8
>>> measured("CCCCCCCC(=O)N[C@H](CCCCN)C(=O)N[C@H](CCCCN)C(=O)N[C@H](CC(C)C)C(=O)N[C@H](Cc1ccccc1)C(=O)N[C@H](CCCCN)C(=O)N[C@H](CCCCN)C(=O)N[C@@H](C(=O)N[C@H](CC(C)C)C(=O)N[C@H](CCCNC(=N)N)C(=O)N[C@H](Cc1ccc(O)cc1)C(=O)N[C@H](CC(C)C)C(N)=O)[C@H](C)CC [compound 3] (Octanoyl-[dK][dK][dL][dF][dK][dK][dI][dL][dR][dY][dL]-NH2)")
32
>>> measured("CC[C@H](C)CCCCC(=O)N[C@@H](CCN)C(=O)N[C@H](C(=O)N[C@@H](CCN)C(=O)N[C@H]1CCNC(=O)[C@H]([C@@H](C)O)NC(=O)[C@H](CCN)NC(=O)[C@H](CCN)NC(=O)[C@H](CC(C)C)NC(=O)[C@@H](CC(C)C)NC(=O)[C@H](CCN)NC1=O)[C@@H](C)O [Colistin, reference compound] (X1-[Dab]T[Dab][Dab][Dab][dL]L[Dab][Dab]T; lactam 4-C (inferred); N-terminus assumed)")
0.5
>>> measured("CCCCCCCCCCCC(=O)N[C@H](CCCCN)C(=O)N[C@H](CCCCN)C(=O)N[C@H](CC(C)C)C(=O)N[C@H](Cc1ccccc1)C(=O)N[C@H](CCCCN)C(=O)N[C@H](CCCCN)C(=O)N[C@@H](C(=O)N[C@H](CC(C)C)C(=O)N1CCCC[C@H](C(N)=O)NC(=O)[C@@H](Cc2ccc(O)cc2)NC(=O)[C@@H](CCCNC(=N)N)NC(=O)C1)[C@H](C)CC")
4
>>> measured("CCCCCC(=O)N[C@H](CCCCN)C(=O)N[C@H](CCCCN)C(=O)N[C@H](CC(C)C)C(=O)N[C@H](Cc1ccccc1)C(=O)N[C@H](CCCCN)C(=O)N[C@H](CCCCN)C(=O)N[C@@H](C(=O)N[C@H](CC(C)C)C(=O)N[C@H](CCCNC(=N)N)C(=O)N[C@H](Cc1ccc(O)cc1)C(=O)N[C@H](CC(C)C)C(N)=O)[C@H](C)CC [compound 2] (Hexanoyl-[dK][dK][dL][dF][dK][dK][dI][dL][dR][dY][dL]-NH2)")
32
>>> measured("CCCCCCCCCCCCCC(=O)N[C@H](CCCCN)C(=O)N[C@H](CCCCN)C(=O)N[C@H](CC(C)C)C(=O)N[C@H](Cc1ccccc1)C(=O)N[C@H](CCCCN)C(=O)N[C@H](CCCCN)C(=O)N1CCCC[C@H](C(N)=O)NC(=O)[C@@H](Cc2ccc(O)cc2)NC(=O)[C@@H](CCCNC(=N)N)NC(=O)[C@@H](CC(C)C)NC(=O)[C@@H]([C@H](C)CC)NC(=O)C1")
16
>>> measured("CC[C@@H](C)[C@@H](NC(=O)[C@@H](CCCCN)NC(=O)[C@@H](CCCCN)NC(=O)[C@@H](Cc1ccccc1)NC(=O)[C@@H](CC(C)C)NC(=O)[C@@H](CCCCN)NC(=O)[C@H](N)CCCCN)C(=O)N[C@H](CC(C)C)C(=O)N[C@H](CCCNC(=N)N)C(=O)N[C@H](Cc1ccc(O)cc1)C(=O)N[C@H](CC(C)C)C(N)=O [BP214, reference compound] (H-[dK][dK][dL][dF][dK][dK][dI][dL][dR][dY][dL]-NH2; N-terminus assumed)")
4
>>> measured("CCCCCCCCCC(=O)N[C@H](CCCCN)C(=O)N[C@H](CCCCN)C(=O)N[C@H](CC(C)C)C(=O)N[C@H](Cc1ccccc1)C(=O)N[C@H](CCCCN)C(=O)N[C@H](CCCCN)C(=O)N[C@@H](C(=O)N1CCCC[C@H](C(N)=O)NC(=O)[C@@H](Cc2ccc(O)cc2)NC(=O)[C@@H](CCCNC(=N)N)NC(=O)[C@@H](CC(C)C)NC(=O)C1)[C@H](C)CC")
8
